Source: patent US8420692B1

- Tested on: HIV Tat-regulated transactivation
- protocol.text: cells
- Format: cell-based
- test.conditions: 2.5 μM; average of three experiments
Listing of recorded Inhibition (%) of HIV Tat-regulated Transactivation in COS Cells by entry.
measured.endpoint: Inhibition (%) of HIV Tat-regulated Transactivation in COS Cells

smiles.string | target.or.test.system | observed.measurement
COC(=O)Oc1ccc(C[C@@H](C)[C@@H](C)Cc2ccc(OC(=O)OC)c(OC(=O)OC)c2)cc1OC(=O)OC | HIV Tat-regulated transactivation | 15.1
C[C@H](Cc1ccc(OCCN2CCCCC2)c(OCCN2CCCCC2)c1)[C@@H](C)Cc1ccc(OCCN2CCCCC2)c(OCCN2CCCCC2)c1 | HIV Tat-regulated transactivation | 90.6
C[C@H](Cc1ccc(OCCN2CCCC2)c(OCCN2CCCC2)c1)[C@@H](C)Cc1ccc(OCCN2CCCC2)c(OCCN2CCCC2)c1.Cl.Cl.Cl.Cl | HIV Tat-regulated transactivation | 31.0
C[C@H](Cc1ccc(OC(=O)N2CCCCC2)c(OC(=O)N2CCCCC2)c1)[C@@H](C)Cc1ccc(OC(=O)N2CCCCC2)c(OC(=O)N2CCCCC2)c1 | HIV Tat-regulated transactivation | 46.2
C[C@H](Cc1ccc(OCCCN2CCOCC2)c(OCCCN2CCOCC2)c1)[C@@H](C)Cc1ccc(OCCCN2CCOCC2)c(OCCCN2CCOCC2)c1.Cl.Cl.Cl.Cl | HIV Tat-regulated transactivation | 52.7
C[C@H](Cc1ccc(OCCN2CCOCC2)c(OCCN2CCOCC2)c1)[C@@H](C)Cc1ccc(OCCN2CCOCC2)c(OCCN2CCOCC2)c1.Cl.Cl.Cl.Cl | HIV Tat-regulated transactivation | 4.6

----------
- Test system: HIV Tat-regulated transactivation
- protocol.text: cells
- Format: cell-based
- test.conditions: COS cells, SeAP; mean of triplicate determinations; read-out: IC50, HIV Tat-regulated transactivation
- Description: The COS cells were co-transfected with a Tat-producing plasmid and a plasmid containing the HIV LTR linked to the SeAP reporter gene. Transfected cells were treated with various concentrations of 5b P4N. After 48 h, aliquots of media were removed and analysis of SeAP activity was performed. The percent inhibition of SeAP activity by 5b P4N ? was calculated in comparison with the percent of growth inhibition of untransfected COS cells by P4N ? […]
pIC50: −log10 of the molar value.
Listing of recorded pIC50 by entry.
measured.endpoint: pIC50

smiles.string | observed.measurement
COC(=O)Oc1ccc(C[C@@H](C)[C@@H](C)Cc2ccc(OC(=O)OC)c(OC(=O)OC)c2)cc1OC(=O)OC | 5.03
C[C@H](Cc1ccc(OCCCN2CCOCC2)c(OCCCN2CCOCC2)c1)[C@@H](C)Cc1ccc(OCCCN2CCOCC2)c(OCCCN2CCOCC2)c1.Cl.Cl.Cl.Cl | 5.62
C[C@H](Cc1ccc(OCCN2CCOCC2)c(OCCN2CCOCC2)c1)[C@@H](C)Cc1ccc(OCCN2CCOCC2)c(OCCN2CCOCC2)c1.Cl.Cl.Cl.Cl | 4.76
C[C@H](Cc1ccc(OC(=O)N2CCCCC2)c(OC(=O)N2CCCCC2)c1)[C@@H](C)Cc1ccc(OC(=O)N2CCCCC2)c(OC(=O)N2CCCCC2)c1 | 5.55
C[C@H](Cc1ccc(OCCN2CCCCC2)c(OCCN2CCCCC2)c1)[C@@H](C)Cc1ccc(OCCN2CCCCC2)c(OCCN2CCCCC2)c1 | 6.06
C[C@H](Cc1ccc(OCCN2CCCC2)c(OCCN2CCCC2)c1)[C@@H](C)Cc1ccc(OCCN2CCCC2)c(OCCN2CCCC2)c1.Cl.Cl.Cl.Cl | 4.76

----------
- Tested on: HIV Tat-regulated transactivation
- protocol.text: cells
- Format: cell-based
- test.conditions: 1.0 μM; average of three experiments
measured.endpoint: Inhibition (%) of HIV Tat-regulated Transactivation in COS Cells

smiles.string | unit.tag | observed.measurement
C[C@H](Cc1ccc(OC(=O)N2CCCCC2)c(OC(=O)N2CCCCC2)c1)[C@@H](C)Cc1ccc(OC(=O)N2CCCCC2)c(OC(=O)N2CCCCC2)c1 | % | 11.7
C[C@H](Cc1ccc(OCCN2CCCCC2)c(OCCN2CCCCC2)c1)[C@@H](C)Cc1ccc(OCCN2CCCCC2)c(OCCN2CCCCC2)c1 | % | 56.8
COC(=O)Oc1ccc(C[C@@H](C)[C@@H](C)Cc2ccc(OC(=O)OC)c(OC(=O)OC)c2)cc1OC(=O)OC | % | 13.1
C[C@H](Cc1ccc(OCCN2CCOCC2)c(OCCN2CCOCC2)c1)[C@@H](C)Cc1ccc(OCCN2CCOCC2)c(OCCN2CCOCC2)c1.Cl.Cl.Cl.Cl | % | 8.1
C[C@H](Cc1ccc(OCCCN2CCOCC2)c(OCCCN2CCOCC2)c1)[C@@H](C)Cc1ccc(OCCCN2CCOCC2)c(OCCCN2CCOCC2)c1.Cl.Cl.Cl.Cl | % | 9.5
C[C@H](Cc1ccc(OCCN2CCCC2)c(OCCN2CCCC2)c1)[C@@H](C)Cc1ccc(OCCN2CCCC2)c(OCCN2CCCC2)c1.Cl.Cl.Cl.Cl | % | 19.6
